- System: Mouse spleen cells
- assay summary: Mitogen Induced (Con A) Mouse Lymphocyte Proliferation
- Assay type: cell-based
- experimental conditions: .01-1.0
Where a name gives a salt, the structure may show the parent alone.
quantity kind: Maximum Percent Change, Mitogen Induced (Con A) Mouse Lymph. Prolif. (%)
Entry rule: numbers only, all in %.

So for O=c1[nH]cnc2c1ncn2CCO [NPT 15425, 9-HYDROXYETHYL HYPOXANTHINE] , the logged Maximum Percent Change, Mitogen Induced (Con A) Mouse Lymph. Prolif. turned out to be 11

// Maximum Percent Change, Mitogen Induced (Con A) Mouse Lymph. Prolif. value for CCCCCC[C@H]([C@H](C)O)n1cnc2c(=O)[nH]cnc21 (relative stereo) [NPT 15410] : 140

Data point: CCCCCC[C@H]([C@H](C)O)n1cnc2c(N)ncnc21 (relative stereo) [NPT 15426, HCl] ; Maximum Percent Change, Mitogen Induced (Con A) Mouse Lymph. Prolif. = -50

###

- Test system: Mouse spleen cells
- assay summary: Mitogen Induced (Con A) Mouse Lymphocyte Proliferation
- Format: cell-based
- experimental conditions: .01-1.0
quantity kind: Maximum Percent Change, Mitogen Induced (Con A) Mouse Lymph. Prolif.

Consider CC(CO)n1cnc2c(N)ncnc21 (stereo not shown) [NPT 15433, 9-(1-HYDROXY-2-PROPYL)ADENINE] . Its measured Maximum Percent Change, Mitogen Induced (Con A) Mouse Lymph. Prolif. is +15%

Sample CC(O)Cn1cnc2c(=O)[nH]cnc21 (stereo not shown) [NPT 15446, 9-(2-HYDROXY-1-PROPYL)HYDROXANTHINE] ; Maximum Percent Change, Mitogen Induced (Con A) Mouse Lymph. Prolif. observed: 6%

Just so you know, measured Maximum Percent Change, Mitogen Induced (Con A) Mouse Lymph. Prolif. for CC(O)Cn1cnc2c(N)ncnc21 (stereo not shown) [NPT 15431, 9-(2-HYDROXY-1-PROPYL)ADENINE] came out at -15%

Data point: CC(CO)n1cnc2c(=O)[nH]cnc21 (stereo not shown) [NPT 15443, 9-(1-HYDROXY-2-PROPYL)HYPOXANTHINE] ; Maximum Percent Change, Mitogen Induced (Con A) Mouse Lymph. Prolif. = +17%

###

- Test system: human peripheral blood lymphocytes
- assay summary: Mitogen Induced (PHA) Human Lymphocyte Proliferation
- Assay type: cell-based
- experimental conditions: 1.0-10
Structures can show the parent of a compound that is named as a salt.
quantity kind: Maximum Percent Change, Mitogen Induced (PHA) Human Lymph. Prolif. (%)
// return numeric value only (unit: %, not printed)

The reported human peripheral blood lymphocytes Maximum Percent Change, Mitogen Induced (PHA) Human Lymph. Prolif. of CCCCCC[C@H]([C@H](C)O)n1cnc2c(=O)[nH]cnc21 (relative stereo) is 60

Response field Maximum Percent Change, Mitogen Induced (PHA) Human Lymph. Prolif. (human peripheral blood lymphocytes) for item CC(CO)n1cnc2c(N)ncnc21 (centres unmarked) [NPT 15433, 9-(1-HYDROXY-2-PROPYL)ADENINE] : 0

CC(O)Cn1cnc2c(=O)[nH]cnc21 (centres unmarked) [NPT 15446, 9-(2-HYDROXY-1-PROPYL)HYDROXANTHINE] on human peripheral blood lymphocytes gives Maximum Percent Change, Mitogen Induced (PHA) Human Lymph. Prolif. = 0

Lab entry: human peripheral blood lymphocytes assay, compound CCCCCCC(CO)n1cnc2c(=O)[nH]cnc21 (centres unmarked) , Maximum Percent Change, Mitogen Induced (PHA) Human Lymph. Prolif. = 0

Recorded Maximum Percent Change, Mitogen Induced (PHA) Human Lymph. Prolif. for O=c1[nH]cnc2c1ncn2CCO [NPT 15425, 9-HYDROXYETHYL HYPOXANTHINE] on human peripheral blood lymphocytes was 0

// Maximum Percent Change, Mitogen Induced (PHA) Human Lymph. Prolif. (human peripheral blood lymphocytes) for CC(O)Cn1cnc2c(N)ncnc21 (centres unmarked) [NPT 15431, 9-(2-HYDROXY-1-PROPYL)ADENINE] = 0

Record CCCCCC[C@H]([C@H](C)O)n1cnc2c(N)ncnc21 (relative stereo) [NPT 15426, HCl] has human peripheral blood lymphocytes Maximum Percent Change, Mitogen Induced (PHA) Human Lymph. Prolif. equal to -41
